Test: qHTS assay to identify small molecule agonists of the androgen receptor (AR) signaling pathway in the presence of an antagonist - cell viability counter screen (AID 1259379); note: nearly all actives have a fitted effect of over 25% in size; note: potency is the fitted concentration of half-maximal effect
Test conditions: MDA-kb2 viability, CellTiter-Fluor, 16 h; series mostly up to 92.4 µM
Inconclusive results are not listed. Active and inactive are the calls of the source. Calls come from the whole dose curve; as a rule, active = well fitted cell-killing curve with a large enough effect in the repeat runs; inconclusive = weak or mixed curves, or effect the other way; inactive = flat fitted curve, though single readings scatter.
Assay readout: Potency

These recorded examples may help you get a feel for the data.
smiles_representation=O=c1cc[nH]cc1 assay_readout=Potency test_result=inactive
smiles_representation=C1CCSC1 assay_readout=Potency test_result=inactive
smiles_representation=Nc1ccc2c(S(=O)(=O)O)cccc2c1S(=O)(=O)O assay_readout=Potency test_result=inactive
smiles_representation=CCCC(=O)c1cc(O)c(O)cc1O assay_readout=Potency test_result="54.5 µM (active)"

So what does the record say about Potency for CCOC=C(C(=O)OCC)C(=O)OCC ?
inactive
